experiment: Mouse pharmacokinetics in CD-1 mice (blood, kidney, liver, lung); assay type: in vivo; conditions: male, CD-1, mouse, in vivo, 1 mg/kg, Blood; 0.083 h; 1 mg/kg IV; individual animals; read-out: Concentration (µM) from 1 mg/kg Dosing Blood
assay_endpoint: concentration at 0.083 h (µM)
State the answer as a number, implicitly in µM.

// query Could you tell me which concentration at 0.083 h is on file for Cc1ncsc1-c1ccc(C(C)NC(=O)C2CC(O)CN2C(=O)C(c2cc(N3CCC(CN4CCC(OC5CC(Oc6cc(N7C8CCC7CN(c7cc(-c9ccccc9O)nnc7N)C8)ccn6)C5)CC4)CC3)no2)C(C)C)cc1 (stereo not shown) ?
// result 0.338

====

test: Mouse pharmacokinetics in CD-1 mice (blood, kidney, liver, lung); format: in vivo; settings: male, CD-1, mouse, in vivo, 20 mg/kg, Blood; 0.5 h; 20 mg/kg IV; individual animals; read-out: Concentration (µM) from 20 mg/kg Dosing Blood
assay_endpoint: concentration at 0.5 h (µM)
Enter your answer as a number in µM; do not include the unit.

// query For Cc1ncsc1-c1ccc(C(C)NC(=O)C2CC(O)CN2C(=O)C(c2cc(N3CCC(CN4CCC(OC5CC(Oc6cc(N7C8CCC7CN(c7cc(-c9ccccc9O)nnc7N)C8)ccn6)C5)CC4)CC3)no2)C(C)C)cc1 (stereo not shown) , what is its reported concentration at 0.5 h?
// result 2.54

====

assay: Mouse pharmacokinetics in CD-1 mice (blood, kidney, liver, lung); type: in vivo; details: male, CD-1, mouse, in vivo, 20 mg/kg, Lung; 8 h; 20 mg/kg IV; individual animals; read-out: Concentration (µM) from 20 mg/kg Dosing Lung
assay_endpoint: concentration at 8 h
Hey, just the number and the unit after it is fine.

// query I would be grateful if you could share the reported concentration at 8 h for Cc1ncsc1-c1ccc(C(C)NC(=O)C2CC(O)CN2C(=O)C(c2cc(N3CCC(CN4CCC(OC5CC(Oc6cc(N7C8CCC7CN(c7cc(-c9ccccc9O)nnc7N)C8)ccn6)C5)CC4)CC3)no2)C(C)C)cc1 (stereo not shown) .
// result 1.59 µM

====

test: Mouse pharmacokinetics in CD-1 mice (blood, kidney, liver, lung); format: in vivo; settings: male, CD-1, mouse, in vivo, 1 mg/kg, Blood; 0.083 h; 1 mg/kg IV; mean; read-out: Concentration (µM) from 1 mg/kg Dosing Blood
assay_endpoint: concentration at 0.083 h (µM)
Field format: number, assumed µM, no unit text.

// query Fill in: concentration at 0.083 h of Cc1ncsc1-c1ccc(C(C)NC(=O)C2CC(O)CN2C(=O)C(c2cc(N3CCC(CN4CCC(OC5CC(Oc6cc(N7C8CCC7CN(c7cc(-c9ccccc9O)nnc7N)C8)ccn6)C5)CC4)CC3)no2)C(C)C)cc1 (stereo not shown) is ___
// result 0.365

====

assay: Mouse pharmacokinetics in CD-1 mice (blood, kidney, liver, lung); format: in vivo; conditions: male, CD-1, mouse, in vivo, 1 mg/kg, Lung; 4 h; 1 mg/kg IV; mean; read-out: Concentration (µM) from 1 mg/kg Dosing Lung
assay_endpoint: concentration at 4 h (µM)
The response must be a number in µM with no trailing unit.

// query Query: concentration at 4 h; subject: Cc1ncsc1-c1ccc(C(C)NC(=O)C2CC(O)CN2C(=O)C(c2cc(N3CCC(CN4CCC(OC5CC(Oc6cc(N7C8CCC7CN(c7cc(-c9ccccc9O)nnc7N)C8)ccn6)C5)CC4)CC3)no2)C(C)C)cc1 (stereo not shown)
// result 0.094

====

assay: Mouse pharmacokinetics in CD-1 mice (blood, kidney, liver, lung); format: in vivo; conditions: male, CD-1, mouse, in vivo, 1 mg/kg, Liver; 24 h; 1 mg/kg IV; individual animals; BLOQ <5.1 ng/mL; read-out: Concentration (µM) from 1 mg/kg Dosing Liver
assay_endpoint: concentration at 24 h (µM)
Respond with the bare value in µM.

// query Any idea what its concentration at 24 h is? The compound is Cc1ncsc1-c1ccc(C(C)NC(=O)C2CC(O)CN2C(=O)C(c2cc(N3CCC(CN4CCC(OC5CC(Oc6cc(N7C8CCC7CN(c7cc(-c9ccccc9O)nnc7N)C8)ccn6)C5)CC4)CC3)no2)C(C)C)cc1 (stereo not shown)
// result 0.006

====

experiment: Mouse pharmacokinetics in CD-1 mice (blood, kidney, liver, lung); assay type: in vivo; conditions: male, CD-1, mouse, in vivo, 1 mg/kg, Lung; 24 h; 1 mg/kg IV; mean; read-out: Concentration (µM) from 1 mg/kg Dosing Lung
assay_endpoint: concentration at 24 h (µM)
Expressed in µM, but write only the number.

// query What value of concentration at 24 h has been recorded for this entry: Cc1ncsc1-c1ccc(C(C)NC(=O)C2CC(O)CN2C(=O)C(c2cc(N3CCC(CN4CCC(OC5CC(Oc6cc(N7C8CCC7CN(c7cc(-c9ccccc9O)nnc7N)C8)ccn6)C5)CC4)CC3)no2)C(C)C)cc1 (stereo not shown) [A947]
// result 0.014

====

experiment: Mouse pharmacokinetics in CD-1 mice (blood, kidney, liver, lung); format: in vivo; details: male, CD-1, mouse, in vivo, 20 mg/kg, Blood; 8 h; 20 mg/kg IV; mean; read-out: Concentration (µM) from 20 mg/kg Dosing Blood
assay_endpoint: concentration at 8 h
Answer with the value and then the unit.

// query Can you look up the measured concentration at 8 h of Cc1ncsc1-c1ccc(C(C)NC(=O)C2CC(O)CN2C(=O)C(c2cc(N3CCC(CN4CCC(OC5CC(Oc6cc(N7C8CCC7CN(c7cc(-c9ccccc9O)nnc7N)C8)ccn6)C5)CC4)CC3)no2)C(C)C)cc1 (stereo not shown) for me?
// result 0.047 µM

====

assay: Mouse pharmacokinetics in CD-1 mice (blood, kidney, liver, lung); format: in vivo; conditions: male, CD-1, mouse, blood and tissues (kidney, liver, lung), iv, CD-1 mice IV; dose = c0, matrix = c1 of the line
assay_endpoint: half-life

// query Given Cc1ncsc1-c1ccc(C(C)NC(=O)C2CC(O)CN2C(=O)C(c2cc(N3CCC(CN4CCC(OC5CC(Oc6cc(N7C8CCC7CN(c7cc(-c9ccccc9O)nnc7N)C8)ccn6)C5)CC4)CC3)no2)C(C)C)cc1 (stereo not shown) , state its recorded half-life.
// result 10 to 15 h

Data origin: paper PMC11099041
